# Species on record: Rattus norvegicus
# METHOD DESCRIPTION: Compound was tested for inhibition of uptake of [14C]5-HT (5-HT) into rat whole brain, in vitro.
# Assay type: functional
pIC50: −log10 of the molar value.
Param threshold (6) applies to pIC50; output met when value >= threshold, not met when value < threshold.

Nc1ccc([C@H]2c3ccccc3[C@H]3NCCC[C@@H]23)cc1; not met
Cc1ccc([C@@H]2c3ccccc3[C@@H]3[C@H]2CCCN3C)cc1; not met
CCCN1CCC[C@H]2[C@H](c3ccccc3)c3ccccc3[C@H]21; not met
Cc1ccc([C@@H]2c3cc(O)ccc3[C@H]3NCCC[C@@H]23)cc1; met

Query string: Answer whether pIC50 of Nc1ccc([C@@H]2c3cc(O)ccc3[C@H]3NCCC[C@@H]23)cc1 is greater than or equal to 6.
Result string: not met

Query string: Also need Cc1ccc([C@@H]2c3cc(O)ccc3[C@H]3NCCC[C@@H]23)cc1N , thanks.
Result string: met

Query string: Would you kindly repeat that for Nc1ccc([C@@H]2c3ccccc3[C@H]3NCCC[C@@H]23)cc1 ?
Result string: not met

Query string: CNCCCN1c2ccccc2CCc2ccccc21 ?
Result string: met

----------
Exercise: for every item that follows, state its recorded selectivity ratio.
# METHOD DESCRIPTION: Therapeutic index (TI), ratio of LD50 and ED50 (TBZ) in mice after i.p. administration
# CONDITION NOTES: mouse, in vivo, ip

Below, 5 compounds whose answers are already recorded.
COc1ccc2c(c1)[C@@H](c1ccc(N)cc1)[C@@H]1CCCN[C@H]21; 60
Nc1cccc([C@@H]2c3ccccc3[C@H]3NCCC[C@@H]23)c1; 20
c1ccc([C@@H]2c3ccccc3[C@H]3NCCC[C@@H]23)cc1; 39
CCCCOc1ccc([C@@H]2c3ccccc3[C@H]3NCCC[C@@H]23)cc1; 46
COc1ccc([C@@H]2c3ccccc3[C@@H]3[C@H]2CCCN3C)cc1; 19

For every listed record, write down its selectivity ratio.
1. CCCN1CCC[C@H]2[C@H](c3ccccc3)c3ccccc3[C@H]21
2. CN1CCC[C@H]2[C@@H](c3ccc(N)cc3)c3ccccc3[C@H]21
3. Cc1ccc([C@@H]2c3ccccc3[C@H]3NCCC[C@@H]23)cc1
4. CN1CCC[C@H]2[C@H](c3ccc(N)cc3)c3ccccc3[C@H]21
5. Nc1ccc([C@@H]2c3ccccc3[C@H]3NCCC[C@@H]23)cc1

Result string:
1: 30; 2: 14; 3: 60; 4: 500; 5: 500

----------
For each of the compounds below, state its LD50.
# METHOD DESCRIPTION: Acute toxicity in mice, after intraperitoneal administration.
# Type: organism-based
# CONDITION NOTES: mouse, in vivo, ip
One number for each entry, in mg/kg.

COc1ccc2c(c1)[C@H](c1ccc(C)cc1)[C@@H]1CCCN[C@H]21; 54
COc1ccc2c(c1)[C@H](c1ccc(C(C)C)cc1)[C@@H]1CCCN[C@H]21; 37
Cc1ccc([C@@H]2c3cc(O)ccc3[C@@H]3[C@H]2CCCN3C)cc1; 187
COc1ccc2c(c1)[C@H](c1ccc(N(C)C)cc1)[C@@H]1CCCN[C@H]21; 48
CCCCOc1ccc([C@@H]2c3ccccc3[C@@H]3[C@H]2CCCN3C)cc1; 134
CN1CCC[C@H]2[C@H](c3ccccc3)c3ccccc3[C@H]21; 74
COc1ccc2c(c1)[C@@H](c1ccc(N)cc1)[C@@H]1CCCN[C@H]21; 60
COc1cc2c(cc1OC)[C@@H]1[C@@H](CCCN1C)[C@H]2c1ccccc1; 70

# map each compound to its LD50
1. Nc1cccc([C@@H]2c3ccccc3[C@H]3NCCC[C@@H]23)c1
2. Cc1ccccc1[C@@H]1c2ccccc2[C@@H]2[C@H]1CCCN2C

Result string:
1. 40
2. 106

State the recorded LD50 for every item in the following list.
1. COc1ccc([C@@H]2c3ccccc3[C@@H]3[C@H]2CCCN3C)cc1
2. Cc1ccccc1[C@H]1c2ccccc2[C@@H]2[C@H]1CCCN2C

Result string:
95
22
